Please respond with reported MIC for every item in the list.
System: Vibrio vulnificus
Assay type: cell-based
Condition notes: 16 h
Ends that are not written are not given here.

Qu. Please give measured MIC of the following entry: FFKRLKNAFKSARQAWR [β-Pte17]
Ans. 10 to 25 µM

Qu. Please give measured MIC of the following entry: FFKRLKNAFKSARQAWRDYK [β-Pte20]
Ans. 5 to 10 µM

Qu. Please give measured MIC of the following entry: FFRHLKSLWKGAKAAFRGAR [γ-Pte20]
Ans. 10 to 25 µM

Qu. Please give measured MIC of the following entry: FFRHLKSLWKGAKAAFR [γ-Pte17]
Ans. 10 to 25 µM

---

System: Staphylococcus aureus
Type: cell-based
Condition notes: 16 h
Ends that are not written are not given here.
Measurement type: MIC

Qu. Please give measured MIC of the following entry: FFRHLKSLWKGAKAAFRGAR [γ-Pte20]
Ans. 1 to 5 µM

Qu. Please give measured MIC of the following entry: FFKRLKNAFKSARQAWR [β-Pte17]
Ans. 10 to 25 µM

Qu. Please give measured MIC of the following entry: FFRHLKSLWKGAKAAFR [γ-Pte17]
Ans. 1 to 5 µM

Qu. Please give measured MIC of the following entry: FFKRLKNAFKSARQAWRDYK [β-Pte20]
Ans. 1 to 5 µM

---

Tested on: Staphylococcus aureus
Format: cell-based
Condition notes: 16 h
Ends that are not written are not given here.
Measurement type: MBC

Qu. Please give measured MBC of the following entry: FFKRLKNAFKSARQAWR [β-Pte17]
Ans. 25 to 50 µM

Qu. Please give measured MBC of the following entry: FFKRLKNAFKSARQAWRDYK [β-Pte20]
Ans. 10 to 25 µM

Qu. Please give measured MBC of the following entry: FFRHLKSLWKGAKAAFR [γ-Pte17]
Ans. 1 to 5 µM

Qu. Please give measured MBC of the following entry: FFRHLKSLWKGAKAAFRGAR [γ-Pte20]
Ans. 1 to 5 µM

---

System: Vibrio aestuarianus
Format: cell-based
Condition notes: 16 h
Ends that are not written are not given here.
Measurement type: MIC

Qu. Please give measured MIC of the following entry: FFKRLKNAFKSARQAWRDYK [β-Pte20]
Ans. 1 to 5 µM

Qu. Please give measured MIC of the following entry: FFRHLKSLWKGAKAAFR [γ-Pte17]
Ans. 5 to 10 µM

Qu. Please give measured MIC of the following entry: FFKRLKNAFKSARQAWR [β-Pte17]
Ans. 10 to 25 µM

Qu. Please give measured MIC of the following entry: FFRHLKSLWKGAKAAFRGAR [γ-Pte20]
Ans. 5 to 10 µM

---

Please respond with reported MBC for every item in the list.
Test system: Vibrio splendidus
Type: cell-based
Condition notes: 16 h
Ends that are not written are not given here.

Qu. Please give measured MBC of the following entry: FFKRLKNAFKSARQAWRDYK [β-Pte20]
Ans. 5 to 10 µM

Qu. Please give measured MBC of the following entry: FFRHLKSLWKGAKAAFR [γ-Pte17]
Ans. 10 to 25 µM

Qu. Please give measured MBC of the following entry: FFRHLKSLWKGAKAAFRGAR [γ-Pte20]
Ans. 5 to 10 µM

Qu. Please give measured MBC of the following entry: FFKRLKNAFKSARQAWR [β-Pte17]
Ans. 10 to 25 µM
